Data provenance: patent US9000182B2

tgt: UniProtKB P56817
Sequence (P56817 22-460): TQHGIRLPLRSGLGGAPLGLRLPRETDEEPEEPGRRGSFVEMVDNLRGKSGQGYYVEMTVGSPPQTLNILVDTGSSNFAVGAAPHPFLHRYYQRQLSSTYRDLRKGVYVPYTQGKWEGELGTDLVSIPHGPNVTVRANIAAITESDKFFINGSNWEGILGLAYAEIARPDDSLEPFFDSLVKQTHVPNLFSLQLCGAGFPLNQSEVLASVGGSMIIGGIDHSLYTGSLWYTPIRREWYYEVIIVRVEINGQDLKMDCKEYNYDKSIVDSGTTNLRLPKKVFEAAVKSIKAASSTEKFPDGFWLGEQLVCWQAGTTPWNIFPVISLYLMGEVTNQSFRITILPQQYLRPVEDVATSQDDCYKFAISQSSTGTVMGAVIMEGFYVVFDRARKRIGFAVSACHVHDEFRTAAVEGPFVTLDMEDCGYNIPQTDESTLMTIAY
protocolDetails: Diluted TR-FRET assay
Format: biochemical
propertyMeasured: pIC50
Please keep in mind that pIC50 is minus log10 of the molar concentration; only the number is needed.

Look up pIC50: CO[C@H]1CC[C@]2(CC1)Cc1ccc(OCC(C)(F)F)cc1C21N=C(C)C(N)=N1 (some centres unmarked)
8.17

Look up pIC50: CO[C@H]1CC[C@]2(CC1)Cc1ccc(OCC(C)F)cc1C21N=C(C)C(N)=N1 (some centres unmarked)
8.17
